test system: vancomycin-resistant Enterococus faecalis (VRE)(ATCC 51575); type: cell-based, Enterococcus faecalis; design: key: peptide concentration in μg/ml (broth dilution assay); settings: Table 9; media b: MHBII
Non-standard residues stand in square brackets, D forms with d. Residues, ends and D or L forms follow the SMILES beside them.
readout_name: VRE (in vitro activity)
Numbers only.

Worked cases, VRE (in vitro activity) given:
compound="CC(C)C[C@H]1NC(=O)[C@H](Cc2c[nH]c3ccccc23)NC(=O)[C@@H](Cc2c[nH]c3ccccc23)NC(=O)[C@H](CCCCN)NC(=O)[C@@H](CO)NC(=O)[C@H](CCCCN)NC(=O)[C@@H](CC(C)C)NC(=O)[C@H](Cc2c[nH]c3ccccc23)NC1=O [SEQ ID NO:67, [KWWLWLKS]] (cyclo(K[dW]W[dL]W[dL]K[dS]))" reported_measurement=10
compound="CC(C)C[C@@H]1NC(=O)[C@@H](CCCNC(=N)N)NC(=O)[C@H](CCC(N)=O)NC(=O)[C@@H](CCCNC(=N)N)NC(=O)[C@H](Cc2c[nH]c3ccccc23)NC(=O)[C@@H](Cc2c[nH]c3ccccc23)NC(=O)[C@H](CC(C)C)NC(=O)[C@@H](Cc2c[nH]c3ccccc23)NC1=O [SEQ ID NO:69, [QRLWLWWR]] (cyclo(Q[dR]L[dW]L[dW]W[dR]))" reported_measurement=6.3

Which VRE (in vitro activity) value belongs to CC(C)C[C@@H]1NC(=O)[C@@H](Cc2c[nH]c3ccccc23)NC(=O)[C@H](Cc2c[nH]c3ccccc23)NC(=O)[C@@H](CCCNC(=N)N)NC(=O)[C@H](CCC(N)=O)NC(=O)[C@@H](CCCNC(=N)N)NC(=O)[C@H](Cc2c[nH]c3ccccc23)NC(=O)[C@@H](Cc2c[nH]c3ccccc23)NC1=O [SEQ ID NO:71, [QRWWLWWR]] (cyclo(Q[dR]W[dW]L[dW]W[dR])) ?
6.3

====

tested on: Bacillus cereus ATCC 11778; type: cell-based
Non-standard residues stand in square brackets, D forms with d. Residues, ends and D or L forms follow the SMILES beside them.
Rule: B. cerius MIC below 20 µg/mL gives True. Equal to or above 20 µg/mL gives False.

Take a look at these entries with their results.
compound="CC(C)C[C@H]1NC(=O)[C@H](CCC(=O)O)NC(=O)[C@@H](CCCCN)NC(=O)[C@H](Cc2c[nH]c3ccccc23)NC(=O)[C@@H](CC(C)C)NC(=O)[C@H](Cc2c[nH]c3ccccc23)NC(=O)[C@@H](CC(C)C)NC(=O)[C@H](Cc2c[nH]c3ccccc23)NC1=O [SEQ ID NO:143, [KELWLWLW]] (cyclo([dK]E[dL]W[dL]W[dL]W))" tgt="Bacillus cereus ATCC 11778" class_assignment=False
compound="CC(C)C[C@H]1NC(=O)[C@H](CCCCN)NC(=O)[C@@H](CCCNC(=N)N)NC(=O)[C@H](Cc2c[nH]c3ccccc23)NC(=O)[C@@H](CC(C)C)NC(=O)[C@H](Cc2c[nH]c3ccccc23)NC1=O [SEQ ID NO:141, [RKLWLW]] (cyclo([dR]K[dL]W[dL]W))" tgt="Bacillus cereus ATCC 11778" class_assignment=True
compound="CC(C)C[C@H]1NC(=O)[C@H](Cc2c[nH]c3ccccc23)NC(=O)[C@@H](CCCNC(=N)N)NC(=O)[C@H](CCC(N)=O)NC(=O)[C@@H](CCCNC(=N)N)NC(=O)[C@H](Cc2c[nH]c3ccccc23)NC(=O)[C@@H](CC(C)C)NC(=O)[C@H](Cc2c[nH]c3ccccc23)NC1=O [SEQ ID NO:10, RQRWLWLW] (cyclo([dR]Q[dR]W[dL]W[dL]W))" tgt="Bacillus cereus ATCC 11778" class_assignment=True
compound="CC(C)C[C@@H](NC(=O)[C@H](Cc1c[nH]c2ccccc12)NC(=O)[C@@H](CC(C)C)NC(=O)[C@H](Cc1c[nH]c2ccccc12)NC(=O)[C@@H](CCCCN)NC(=O)[C@H](CCCNC(=N)N)NC(=O)[C@H](N)CCCNC(=N)N)C(=O)N[C@@H](Cc1c[nH]c2ccccc12)C(N)=O [SEQ ID NO:135, H-RRKWLWLW-NH2] (H-[dR]R[dK]W[dL]W[dL]W-NH2)" tgt="Bacillus cereus ATCC 11778" class_assignment=True
compound="CC(C)C[C@@H](NC(=O)[C@H](Cc1c[nH]c2ccccc12)NC(=O)[C@@H](CC(C)C)NC(=O)[C@H](Cc1c[nH]c2ccccc12)NC(=O)[C@@H](CCCCN)NC(=O)[C@H](CCCCN)NC(=O)[C@@H](CCCCN)NC(=O)[C@@H](N)Cc1c[nH]c2ccccc12)C(=O)O [SEQ ID NO:144, H-WKKKWLWL-OH] (H-W[dK]K[dK]W[dL]W[dL]-OH)" tgt="Bacillus cereus ATCC 11778" class_assignment=False

Lab note: confirm whether the reported B. cerius MIC for this compound is below 20 µg/mL, equality not counting. compound: CC(C)C[C@H]1NC(=O)[C@H](Cc2c[nH]cn2)NC(=O)[C@@H](CCCCN)NC(=O)[C@H](Cc2c[nH]c3ccccc23)NC(=O)[C@@H](CC(C)C)NC(=O)[C@H](Cc2c[nH]c3ccccc23)NC1=O [SEQ ID NO:27, cyclo-(D-Lys-His-D-Leu-Trp-D-Leu-Trp)] (cyclo(H[dL]W[dL]W[dK]))
True

Lab note: confirm whether the reported B. cerius MIC for this compound is below 20 µg/mL, equality not counting. compound: CC(C)C[C@@H](NC(=O)[C@H](Cc1c[nH]c2ccccc12)NC(=O)[C@@H](CC(C)C)NC(=O)[C@H](Cc1c[nH]c2ccccc12)NC(=O)[C@@H](CCCCN)NC(=O)[C@H](CCCCN)NC(=O)[C@H](N)CCCCN)C(=O)N[C@@H](Cc1c[nH]c2ccccc12)C(N)=O [SEQ ID NO:134, H-KKKWLWLW-NH2] (H-[dK]K[dK]W[dL]W[dL]W-NH2)
True

Lab note: confirm whether the reported B. cerius MIC for this compound is below 20 µg/mL, equality not counting. compound: CC(C)C[C@H]1NC(=O)[C@H](Cc2c[nH]c3ccccc23)NC(=O)[C@@H](CCCCN)NC(=O)[C@H](CO)NC(=O)[C@@H](CCCCN)NC(=O)[C@H](Cc2c[nH]c3ccccc23)NC(=O)[C@@H](CC(C)C)NC(=O)[C@H](Cc2c[nH]c3ccccc23)NC1=O [SEQ ID NO:12, D-Lys-Ser-D-Lys-Trp-D-Leu-Trp-D-Leu-Trp] (cyclo([dK]S[dK]W[dL]W[dL]W))
True

Lab note: confirm whether the reported B. cerius MIC for this compound is below 20 µg/mL, equality not counting. compound: CC(C)C[C@H]1NC(=O)[C@H](Cc2c[nH]c3ccccc23)NC(=O)[C@@H](CCCCN)NC(=O)[C@H](CCCCN)NC(=O)[C@@H](CCCCN)NC(=O)[C@H](Cc2c[nH]c3ccccc23)NC(=O)[C@@H](CC(C)C)NC(=O)[C@H](Cc2c[nH]c3ccccc23)NC1=O [SEQ ID NO:17] (cyclo([dK]K[dK]W[dL]W[dL]W))
True

Lab note: confirm whether the reported B. cerius MIC for this compound is below 20 µg/mL, equality not counting. compound: CC(C)C[C@@H]1NC(=O)[C@@H](Cc2c[nH]c3ccccc23)NC(=O)[C@H](CCCNC(=N)N)NC(=O)[C@@H](CCC(N)=O)NC(=O)[C@H](CCCCN)NC(=O)[C@@H](Cc2c[nH]c3ccccc23)NC(=O)[C@H](CC(C)C)NC(=O)[C@@H](Cc2c[nH]c3ccccc23)NC1=O [SEQ ID NO:9] (cyclo(K[dQ]R[dW]L[dW]L[dW]))
True

====

system: Bacillus cereus ATCC 11778; format: cell-based
Non-standard residues stand in square brackets, D forms with d. Residues, ends and D or L forms follow the SMILES beside them.
readout_name: B. cerius MIC
Field: value (include unit after the number)

Which B. cerius MIC value belongs to CC(C)C[C@H]1NC(=O)[C@H](Cc2c[nH]c3ccccc23)NC(=O)[C@@H](Cc2c[nH]cn2)NC(=O)[C@H](CCCCN)NC(=O)[C@@H](CCC(=O)O)NC(=O)[C@H](Cc2c[nH]c3ccccc23)NC(=O)[C@@H](CC(C)C)NC(=O)[C@H](Cc2c[nH]c3ccccc23)NC1=O [SEQ ID NO:16] (cyclo(K[dH]W[dL]W[dL]W[dE])) ?
85 µg/mL

====

test system: murine red blood cells; test: Red blood cell hemolysis; type: cell-based, mouse
Non-standard residues stand in square brackets, D forms with d. Residues, ends and D or L forms follow the SMILES beside them.
Assign RBC Hemolysis (HD50) to each entry below.

Worked cases, RBC Hemolysis (HD50) given:
compound="NCCCC[C@@H]1NC(=O)[C@@H](Cc2ccc(O)cc2)NC(=O)[C@H](CCC(N)=O)NC(=O)[C@@H](Cc2ccc(O)cc2)NC(=O)[C@H](CCCCN)NC(=O)[C@@H](CC(N)=O)NC(=O)[C@H](Cc2c[nH]c3ccccc23)NC(=O)[C@@H](CC(N)=O)NC1=O [SEQ ID NO:94, [KYQYKNWN]] (cyclo(K[dN]W[dN]K[dY]Q[dY]))" readout_name="RBC Hemolysis (HD50)" reported_measurement=>200
compound="CC(C)C[C@@H]1NC(=O)[C@@H](Cc2c[nH]c3ccccc23)NC(=O)[C@H](CCCCN)NC(=O)[C@@H](CO)NC(=O)[C@H](CCCCN)NC(=O)[C@@H](Cc2c[nH]c3ccccc23)NC1=O [SEQ ID NO:126, [KSKWLW]] (cyclo(K[dS]K[dW]L[dW]))" readout_name="RBC Hemolysis (HD50)" reported_measurement=>65

Here's the next entry for you.
Which RBC Hemolysis (HD50) value belongs to C[C@H]1NC(=O)[C@H](CCCCN)NC(=O)[C@@H](Cc2ccccc2)NC(=O)[C@H](CCC(N)=O)NC(=O)[C@@H](C)NC(=O)[C@H](CCCCN)NC(=O)[C@@H](Cc2ccccc2)NC(=O)[C@H](Cc2c[nH]c3ccccc23)NC1=O [SEQ ID NO:97, [KAQFKAWF]] (cyclo(K[dA]Q[dF]K[dA]W[dF])) ?
>200
